- measured_on: Glucose oxidase (GOD) (E.C.1.1.3.4.) (Aspergillus niger)
- Sequence (P13006 17-605, species assumed): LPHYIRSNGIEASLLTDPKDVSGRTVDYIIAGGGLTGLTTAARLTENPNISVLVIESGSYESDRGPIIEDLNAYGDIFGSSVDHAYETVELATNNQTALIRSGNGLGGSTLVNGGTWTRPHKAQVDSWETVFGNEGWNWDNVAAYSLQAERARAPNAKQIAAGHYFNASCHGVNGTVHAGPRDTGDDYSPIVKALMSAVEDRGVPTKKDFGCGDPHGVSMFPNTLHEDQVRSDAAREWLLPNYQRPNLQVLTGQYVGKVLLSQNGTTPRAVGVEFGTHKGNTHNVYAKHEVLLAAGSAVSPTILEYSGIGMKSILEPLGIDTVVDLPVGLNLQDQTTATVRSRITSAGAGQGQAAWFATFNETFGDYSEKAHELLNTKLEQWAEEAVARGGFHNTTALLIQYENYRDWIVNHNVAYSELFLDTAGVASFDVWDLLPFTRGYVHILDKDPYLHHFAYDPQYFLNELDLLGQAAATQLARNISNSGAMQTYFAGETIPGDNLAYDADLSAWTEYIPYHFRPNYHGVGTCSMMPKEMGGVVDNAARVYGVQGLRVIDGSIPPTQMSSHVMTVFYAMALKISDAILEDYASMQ
- assay_details: Chronoamperometry of GOD-graphite/paraffin pasta electrode containing the mediator (glucose measurement)
- Format: biochemical
- reported_conditions: Ag/AgCl ref.
experimental_endpoint: Working potential
The response must contain the number and no unit.

The following molecules have reported results that may help.
Tell me reported Working potential for C[N+](C)=c1ccc2nc3c(ccc4ccccc43)oc-2c1 [MB] , tested with Glucose oxidase (GOD) (E.C.1.1.3.4.) (Aspergillus niger).
100

Also CN(C)c1ccc(N2CCOCC2)cc1 [MDMP, 1-dimethylamino-4-morpholinobenzene] ?
100

Also c1cc(N2CCCCC2)ccc1N1CCCCC1 [BPP, 1,4-dipiperidinobenzene] ?
150

Also CN(C)c1ccc2c(c1)Sc1c(ccc(N(C)C)c1[N+](=O)[O-])N2 [MG] ?
100

Also c1cc(N2CCOCC2)ccc1N1CCCCC1 [MPP, 1-morpholino-4-piperidinobenzene] ?
100

Now take the following molecule into account.
Tell me reported Working potential for c1cc(N2CCOCC2)ccc1N1CCOCC1 [BMP, 1,4-dimorpholinobenzene] , tested with Glucose oxidase (GOD) (E.C.1.1.3.4.) (Aspergillus niger).
200
